Assay: MMV: MTT Cytotoxicity Assay Day 3 pi, U87-CD4-CCR5 cells, % cell death @ 5mM compound
Assay type: toxicity, cell-based
Conditions: human, u87-cd4-ccr5, 5000 µM
Quick list: % Cell Death per entry.
MEASURED QUANTITY: % Cell Death

- MOLECULE: "COc1ccc(C2c3ccc4ccccc4c3Oc3ncn(CCCN(C)C)c(=N)c32)cc1 (stereo unspecified)"
  MEASURED QUANTITY: "% Cell Death"
  READING: 15
- MOLECULE: "Cc1cc(=O)oc2c1ccc1oc(C(=O)c3ccccc3)c(C)c12"
  MEASURED QUANTITY: "% Cell Death"
  READING: 10
- MOLECULE: "CC1CCN(Cc2c(O)ccc3cc(-c4nc5ccccc5s4)c(=O)oc23)CC1"
  MEASURED QUANTITY: "% Cell Death"
  READING: 12
- MOLECULE: "COc1cc(SC)ccc1C(=O)N1CCCC(C)C1 (stereo unspecified)"
  MEASURED QUANTITY: "% Cell Death"
  READING: 9
- MOLECULE: "CC1CC(C)CN(C(=O)c2ccc(Cl)cc2Cl)C1 (stereo unspecified)"
  MEASURED QUANTITY: "% Cell Death"
  READING: -5
- MOLECULE: "c1ccc(CNc2nc(Nc3ccccc3)nc3ccccc23)cc1"
  MEASURED QUANTITY: "% Cell Death"
  READING: 36

* * *

System: Human immunodeficiency virus 1
Assay: MMV: HIV CXCR4-tropic env NL4-3 pseudovirus assay produces luciferase signal in lieu of replicating viral particles Day 3 pi, U87-CD4-CXCR4, % inhibition at 5 mM compound
Assay type: functional
Set-up: dose or concentration left out as unconfirmed
Settings: Human immunodeficiency virus 1, NL4-3, U87.CD4.CXCR4, 72 h

- COMPOUND: "CCOC(=O)c1c[nH]c2c(CC)cccc2c1=O"
  TARGET OF ASSAY: "Human immunodeficiency virus 1"
  inhibition: "7%"
- COMPOUND: "COc1ccccc1C(=O)ON=C(N)Cc1cccc2ccccc12"
  TARGET OF ASSAY: "Human immunodeficiency virus 1"
  inhibition: "1%"
- COMPOUND: "CCCc1c(C)nc2ccccc2c1O"
  TARGET OF ASSAY: "Human immunodeficiency virus 1"
  inhibition: "9%"
- COMPOUND: "COc1ccc(C(=O)C2CC2c2ccc(Cl)cc2)cc1 (stereo unspecified)"
  TARGET OF ASSAY: "Human immunodeficiency virus 1"
  inhibition: "-2%"
- COMPOUND: "CC1CC(C)CN(C(=O)c2ccc(Cl)cc2Cl)C1 (stereo unspecified)"
  TARGET OF ASSAY: "Human immunodeficiency virus 1"
  inhibition: "-1%"
- COMPOUND: "N=c1n(CCN2CCCCC2)c2ccccc2n1CC(=O)c1ccc(Cl)c(Cl)c1"
  TARGET OF ASSAY: "Human immunodeficiency virus 1"
  inhibition: "0%"
- COMPOUND: "CCn1c(CN2CCN(Cc3ccccc3)CC2)nc2cc(NC(=O)c3cccs3)ccc21"
  TARGET OF ASSAY: "Human immunodeficiency virus 1"
  inhibition: "1%"
- COMPOUND: "Cc1ccc2cc3c(N)c4c(C)ccc(C)c4nc3nc2c1"
  TARGET OF ASSAY: "Human immunodeficiency virus 1"
  inhibition: "5%"
- COMPOUND: "CCOc1cc2c(cc1OCC)C(c1cc(OC)c(O)cc1Cl)NCC2 (stereo unspecified)"
  TARGET OF ASSAY: "Human immunodeficiency virus 1"
  inhibition: "10%"
- COMPOUND: "Cc1cc(NC(=O)C2c3ccccc3C(=O)N(CC(C)C)C2c2cccs2)no1 (stereo unspecified)"
  TARGET OF ASSAY: "Human immunodeficiency virus 1"
  inhibition: "8%"
- COMPOUND: "CC1CCN(Cc2ccc(NC(=O)c3cc4ccc5cccnc5c4[nH]3)cc2)CC1"
  TARGET OF ASSAY: "Human immunodeficiency virus 1"
  inhibition: "-1%"

* * *

Experiment: MMV: MTT Cytotoxicity Assay Day 7 pi of Assay #6 (compound washed out Day 1 pi), U87-CD4-CCR5 cells, % cell death @ 5mM compound
Assay type: toxicity, cell-based
Details: human, u87-cd4-ccr5, 5000 µM

- COMPOUND: "CCN(Cc1ccccc1)C1CCN(Cc2cc(Br)ccc2O)CC1.O=C(O)C(=O)O"
  % Cell Death: 6
- COMPOUND: "CCN1CCCC1CNc1[nH]cnc2c3cc(Cl)ccc3nc1-2 (configuration not stated)"
  % Cell Death: 26
- COMPOUND: "CC(=O)Nc1nnc(SCc2c(C)cc(C(C)(C)C)cc2C)s1"
  % Cell Death: 3
- COMPOUND: "CCOC(=O)C1=CN(C)C=C(C(=O)OCC)C1c1cc(Br)c(OCC)c(OC)c1"
  % Cell Death: 37
- COMPOUND: "CCn1nc(-c2ccc(C(=O)OC)cc2)nc2c(=O)n(C)c(=O)nc1-2"
  % Cell Death: 6
- COMPOUND: "CCCCc1c(C)nc2c(OC)cccc2c1O"
  % Cell Death: 43
- COMPOUND: "COc1cc(SC)ccc1C(=O)N1CCCC(C)C1 (configuration not stated)"
  % Cell Death: 12
- COMPOUND: "COc1cc(-c2nc(-c3ccc(Sc4ccccc4)cc3)c(-c3ccccc3)[nH]2)cc(OC)c1O"
  % Cell Death: 5
- COMPOUND: "Oc1ccc(Cl)cc1CNc1nc2ccccc2[nH]1"
  % Cell Death: 10
- COMPOUND: "O=C(c1ccccc1F)N(Cc1ccc(Cl)cc1)c1ccccn1"
  % Cell Death: 22
- COMPOUND: "Br.CCN(CC)S(=O)(=O)c1ccc(-c2csc(Nc3ccc(C)c(C)c3)n2)cc1"
  % Cell Death: 20
- COMPOUND: "CCCCc1c(CCC)c(=N)c2ccccc2n1C.I"
  % Cell Death: 27
- COMPOUND: "CCOc1ccc(C2N(C)c3ccccc3N2C)cc1"
  % Cell Death: 105
- COMPOUND: "COc1ccc(C(=O)NC(c2ccc(Cl)cc2Cl)c2cc(Cl)c3cccnc3c2O)cc1 (configuration not stated)"
  % Cell Death: 1
- COMPOUND: "COCCN(C(=O)Cc1cccs1)C(C(=O)NCc1ccc(OC)cc1)c1ccc(C(C)C)cc1 (configuration not stated)"
  % Cell Death: 16
- COMPOUND: "Clc1ccc2c(N3CCCC3)ccnc2c1"
  % Cell Death: 3
- COMPOUND: "Nc1nc(Nc2cccc(F)c2)nc2ccccc12"
  % Cell Death: -19
- COMPOUND: "O=c1nc(C=Cc2ccc(Cl)cc2)oc2ccccc12"
  % Cell Death: 7
- COMPOUND: "CC1CCN(Cc2c(O)ccc3cc(-c4nc5ccccc5s4)c(=O)oc23)CC1"
  % Cell Death: 16
- COMPOUND: "COc1cc(OC)cc(N2C(=O)N(Cc3ccc(C(C)(C)C)cc3)c3ccccc3S2(=O)=O)c1"
  % Cell Death: 34
- COMPOUND: "COc1ccc(Nc2nc(N/N=C/c3ccc(O)cc3)nc(Nc3ccc([N+](=O)[O-])cc3)n2)cc1"
  % Cell Death: 33
- COMPOUND: "Nc1ccc(-c2nc3cc(Cc4ccc5[nH]c(-c6ccc(N)cc6)nc5c4)ccc3[nH]2)cc1"
  % Cell Death: 69

* * *

Assay: MMV: MTT Cytotoxicity Assay Day 7 pi of Assay #10 (NO washout), U87-CD4-CCR5 cells, % cell death @ 5mM compound
Format: toxicity, cell-based
Details: human, u87-cd4-ccr5, 5000 µM
MEASURED QUANTITY: % Cell Death

- MOLECULE: "COc1ccc2nc(C)cc(Nc3ccccc3O)c2c1"
  READING: 6
- MOLECULE: "O=C(Nc1ccc(N2CCCCC2)c(Cl)c1)c1ccc(Br)o1"
  READING: 76
- MOLECULE: "CCc1ccc(Nc2cc(C)nc3nc(C)nn23)cc1"
  READING: 50
- MOLECULE: "Cl.Clc1cc(Br)ccc1-c1ccc(CNCC2CCNCC2)o1"
  READING: 0
- MOLECULE: "CCN(CC)CCCNc1ccnc2cc3ccccc3cc12"
  READING: 60
- MOLECULE: "CC(C)(C)c1ccc(O)c(CNC2CCCCC2)c1"
  READING: 132
- MOLECULE: "COc1ccc(-c2nc3cc(Cc4ccc5[nH]c(-c6ccc(OC)cc6)nc5c4)ccc3[nH]2)cc1"
  READING: 4
- MOLECULE: "Cc1ccccc1OCCSc1nc2ccc(NC(=O)c3cccs3)cc2s1"
  READING: 107
- MOLECULE: "CCOc1ccc(-c2nc(NC(=O)c3cccc(S(C)(=O)=O)c3)sc2C)cc1"
  READING: 2
- MOLECULE: "Cc1ccc(Nc2nc(N)c3ccccc3n2)cc1Cl"
  READING: -2
- MOLECULE: "CN1CCN(c2nc(Nc3ccc(O)cc3)nc3ccccc23)CC1.Cl"
  READING: 43
- MOLECULE: "COc1cc2c3cc1Oc1c(OC)c(OC)cc4c1C(Cc1ccc(O)c(c1)Oc1ccc(cc1)CC3N(C)CC2)N(C)CC4.Cl (stereo not drawn)"
  READING: 43
- MOLECULE: "COc1ccc(C)c2sc(N(Cc3cccnc3)C(=O)c3ccc(C#N)cc3)nc12"
  READING: 13
- MOLECULE: "CNCCCNc1ccnc2cc(Cl)ccc12"
  READING: 124
- MOLECULE: "Cl.N=c1n(CCN2CCCCC2)c2ccccc2n1CC(O)c1cccc(Br)c1 (stereo not drawn)"
  READING: 11
- MOLECULE: "COc1ccc(C(=O)NC(c2ccccc2Cl)c2cc(Cl)c3cccnc3c2O)cc1 (stereo not drawn)"
  READING: 11
- MOLECULE: "COc1ccc(NC(=O)C2c3ccccc3C(=O)N(CC(C)C)C2c2cccs2)cc1 (stereo not drawn)"
  READING: -9
- MOLECULE: "COc1cccc(Nc2nc(NCCO)c3ccccc3n2)c1.Cl"
  READING: 3
- MOLECULE: "COc1ccccc1C(=O)ON=C(N)Cc1cccc2ccccc12"
  READING: 43
- MOLECULE: "CC(C)CCNCC(O)Cn1c2ccccc2c2ccccc21.Cl (stereo not drawn)"
  READING: -11
- MOLECULE: "Cc1ccc2c(C)nc(Nc3nc(C)cc(-c4ccccc4)n3)nc2c1"
  READING: 114
- MOLECULE: "COc1ccc(C2c3ccc4ccccc4c3Oc3ncn(CCCn4ccnc4)c(=N)c32)cc1OC (stereo not drawn)"
  READING: -6
- MOLECULE: "O=c1nc(C=Cc2ccc(Cl)cc2)oc2ccccc12"
  READING: 26
